The reported measurements were obtained from PubChem BioAssay (NCI).

Would you kindly list TGI for each of these compounds?
- System: HS 578T breast
- assay-name: NCI tumour cell line growth inhibition, 48 h

Please look at the items below and tell me TGI for each one, in order.
1. Cc1ccc(C2C3Cc4ccccc4C3=NN2c2ccc(S(=O)(=O)NC(=O)Nc3ccccc3)cc2)cc1 (stereo not given)
2. COC(=O)/C(C#N)=C/c1cc(C(C)(C)C)c(O)c(C(C)(C)C)c1
3. C=C1C(=O)O[C@H]2[C@H]1CC/C(COC(=O)N[C@H](Cc1c[nH]c3ccccc13)C(=O)OC)=C\CC[C@@]1(C)O[C@@H]21
4. COc1ccc(C(Nc2ccccn2)c2cc(C(C)(C)C)cc(C(C)(C)C)c2O)cc1 (stereo not given)
5. COc1ccc(-c2nnc(Nc3nc(O)c(C4=c5cc(Br)ccc5=NC4=O)s3)o2)cc1
6. CC1(C)CCC[C@@]2(C)C1CC[C@@]1(CO1)[C@@H]2/C=C\C(C=O)CC=O (stereo not given in full)

Reply:
1. 49.9 µM
2. > 37 µM
3. 44.2 µM
4. > 100 µM
5. 22.5 µM
6. > 100 µM

Please look at the items below and tell me TGI for each one, in order.
1. c1ccc2c(c1)[nH]c1c3ccccc3sc21
2. CCOC(=O)c1nc2cc(F)cc(F)c2[nH]c1=O
3. Cc1ccc2c(c1)C(O)(c1ccccc1)CCS2 (stereo not given)
4. N#Cc1c(N)c2c(c(-c3ccccc3)c1-c1ccccc1)C(=O)N(O)C2=O
5. CCOC(=O)/C(=C\c1c(C)[nH]c2ccccc12)P(=O)(OCC)OCC
6. O=C(NCCN(CCNC(=O)c1cccc(=O)n1O)CCNC(=O)c1cccc(=O)n1O)c1cccc(=O)n1O
7. O=C(NC(CCCCN1C(=O)c2ccccc2C1=O)P(=O)(Oc1ccccc1)Oc1ccccc1)OCc1ccccc1 (stereo not given)

Reply:
> 100 µM
> 100 µM
> 100 µM
99.6 µM
> 100 µM
> 100 µM
> 100 µM

Please look at the items below and tell me TGI for each one, in order.
1. COC1OC(Cn2cc([N+](=O)[O-])nc2C)C(O)C(O)C1O (stereo not given)
2. O=C(c1ccc(Nc2nccc(NCCCCNc3ccnc4cc(Cl)ccc34)n2)cc1)N1CCCCC1

Reply:
> 100 µM
4.62 µM

====

- System: NCI-H226 lung
- assay-name: NCI tumour cell line growth inhibition, 48 h
endpoint: TGI (µM)
Give bare numbers, in µM.

Examples with answers:
chem-smiles: COC(=O)/C(C#N)=C/c1cc(C(C)(C)C)c(O)c(C(C)(C)C)c1
measurement-target: NCI-H226 lung
endpoint: TGI
test-result: 9.6
//
chem-smiles: CC[C@]1(Cc2ccc(OC)c(OC)c2)C=[N+]([O-])O[C@H](OCc2ccccc2)[C@@H]1OC(C)=O
measurement-target: NCI-H226 lung
endpoint: TGI
test-result: 53.8

Field: next molecule
Ask: Item C[C@]12CC[C@H](O)CC1=CC[C@@H]1[C@@H]2CC[C@]2(C)NC(=O)/C(=C\c3ccccc3)C[C@@H]12 has what recorded TGI?
Reply: 34.3

====

- System: RPMI-8226 leukemia
- assay-name: NCI tumour cell line growth inhibition, 48 h
Would you kindly list TGI for each of these molecules?

Examples with answers:
molecule: CC(C)(C)OC(=O)N1Cc2cc3ccccc3nc2C1CO (stereo unspecified)
measurement-target: RPMI-8226 leukemia
endpoint: TGI
test-result: > 100 µM
--
molecule: COc1cc2cnc3c4cc(OC)c(OC(C)C)cc4ccc3c2cc1OC
measurement-target: RPMI-8226 leukemia
endpoint: TGI
test-result: > 100 µM
--
molecule: O=C(NCCN(CCNC(=O)c1cccc(=O)n1O)CCNC(=O)c1cccc(=O)n1O)c1cccc(=O)n1O
measurement-target: RPMI-8226 leukemia
endpoint: TGI
test-result: > 100 µM

Please look at the items below and tell me TGI for each one, in order.
1. C/C(=C\CC/C=C(\C)CC/C=C(\C)CCC1SC1(C)C)CC/C=C(\C)CCC1OC1(C)C (stereo unspecified)
2. Nc1cc(N)c2nc(-c3ccccc3)c(NCc3ccc(Cl)c(Cl)c3)nc2c1
3. Cc1ccc(NC(=O)CCC(=O)C2Cc3ccccc3C2=O)cc1C (stereo unspecified)

Reply:
1. > 100 µM
2. 3.72 µM
3. > 100 µM

====

- System: UACC-62 melanoma
- assay-name: NCI tumour cell line growth inhibition, 48 h
// label = Yes if TGI is not less than 20 µM, otherwise No

compound: CC(C)(C)OC(=O)N1Cc2cc3ccccc3nc2C1CO (stereo not drawn)
class-label: Yes
--
compound: O=C(COc1cccc(/C=C2\Oc3ccc4ccccc4c3C2=O)c1)c1ccc([N+](=O)[O-])cc1
class-label: Yes
--
compound: N#CC(C#N)=C1CCC2C(=C(C#N)C#N)CCC12 (stereo not drawn)
class-label: Yes
--
compound: COc1ccc(NC(=O)NNS(=O)(=O)c2ccc(C)cc2)cc1
class-label: Yes
--
compound: COC(=O)C(=O)C(C(C)=O)C(=O)C(=O)Nc1ccc(C)cc1C (stereo not drawn)
class-label: Yes

Ask: Check this compound for TGI at or above 20 µM: C=C1C(=O)O[C@H]2[C@H]1CC/C(COC(=O)N[C@H](Cc1c[nH]c3ccccc13)C(=O)OC)=C\CC[C@@]1(C)O[C@@H]21
Reply: No

Ask: Check this compound for TGI at or above 20 µM: O=C(O)c1cc(Cl)cc(Cc2cc(Cl)cc(C(=O)O)c2O)c1O
Reply: Yes

Ask: Check this compound for TGI at or above 20 µM: COc1cc(OC)nc(-n2c(N)c(C(=O)O)c3ccc([N+](=O)[O-])cc3c2=O)n1
Reply: Yes

Ask: Check this compound for TGI at or above 20 µM: CC[C@]1(Cc2ccc(OC)c(OC)c2)C=[N+]([O-])O[C@H](OCc2ccccc2)[C@@H]1OC(C)=O
Reply: Yes

====

- Test system: SK-MEL-28 melanoma
- assay-name: NCI tumour cell line growth inhibition, 48 h
endpoint: TGI

Examples with answers:
molecule: O=C(O)c1[nH]c2c([N+](=O)[O-])cc([N+](=O)[O-])cc2c1C(=O)O
measurement-target: SK-MEL-28 melanoma
test-result: > 100 µM

molecule: Cn1c(=O)[nH]c2c(c1=O)C(=O)CN2
measurement-target: SK-MEL-28 melanoma
test-result: > 100 µM

molecule: c1cc2c3ccsc3c3sccc3c2s1
measurement-target: SK-MEL-28 melanoma
test-result: > 100 µM

molecule: CCOC(OC1=C(C#N)CCCC1)C(CC)[Se]c1ccccc1[N+](=O)[O-] (stereo not given)
measurement-target: SK-MEL-28 melanoma
test-result: 89.9 µM

Field: next molecule
Ask: Item C/C(=N\NC(=S)N1CCN(c2ccccn2)CC1)c1cccc2cccnc12 has what recorded TGI?
Reply: > 100 µM

====

- Test system: HL-60(TB) leukemia
- assay-name: NCI tumour cell line growth inhibition, 48 h
Would you kindly list TGI for each of these compounds?

Examples with answers:
compound: COC1(OC)C2C=CC1C([C@](C)(N)CO)C2 (some centres not stated)
measurement-target: HL-60(TB) leukemia
TGI: > 100 µM
--
compound: OCC1OC(n2cnc3c(NCc4ccco4)ncnc32)C(O)C1O (configuration not stated)
measurement-target: HL-60(TB) leukemia
TGI: 3.48 µM
--
compound: CCOC(=O)c1nc2cc(F)cc(F)c2[nH]c1=O
measurement-target: HL-60(TB) leukemia
TGI: > 100 µM
--
compound: C[Si](C)(C)/C=C/CN1C(=O)CCC1=O
measurement-target: HL-60(TB) leukemia
TGI: > 100 µM
--
compound: O=C(COc1cccc(/C=C2\Oc3ccc4ccccc4c3C2=O)c1)c1ccc([N+](=O)[O-])cc1
measurement-target: HL-60(TB) leukemia
TGI: > 100 µM
--
compound: FC(F)(F)c1nc(Br)[nH]c1C(F)(F)F
measurement-target: HL-60(TB) leukemia
TGI: > 100 µM
--
compound: O=S(=O)(CF)OCCCCOS(=O)(=O)CF
measurement-target: HL-60(TB) leukemia
TGI: > 100 µM
--
compound: CC(=O)OC(C)c1cc2c(s1)C(=O)c1ccsc1C2=O (configuration not stated)
measurement-target: HL-60(TB) leukemia
TGI: 0.0364 µM
--
compound: Cc1ccc(NC(=O)CCC(=O)C2Cc3ccccc3C2=O)cc1C (configuration not stated)
measurement-target: HL-60(TB) leukemia
TGI: > 100 µM
--
compound: C(=C\c1ccc(OCC2CO2)cc1)/C1=NCOC1 (configuration not stated)
measurement-target: HL-60(TB) leukemia
TGI: 9.16 µM

Please look at the items below and tell me TGI for each one, in order.
1. COC(=O)C1=COC2OC3CC1C2C(C)O3 (configuration not stated)
2. Cn1c(N)c(/C=C/C(=O)Oc2ccccc2)c(=O)n(C)c1=O
3. CC12CCC(=O)[C@@]1(C)CCCC2O (some centres not stated)

Reply:
1. > 100 µM
2. > 100 µM
3. > 100 µM
